B1: HDV Ribozyme (parent)
chain: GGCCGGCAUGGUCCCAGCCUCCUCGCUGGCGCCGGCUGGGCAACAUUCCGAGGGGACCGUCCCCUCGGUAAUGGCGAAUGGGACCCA

# Variants of: B1
# MEASUREMENT_PROTOCOL: self-cleavage, relative activity (ratio to wild type); higher = more cleavage; co-transcriptional
Assign self-cleavage to each entry below.
Answers are plain numbers.

# example entries with known answers
[[record]]
seq = "GGCCGGCAUGGUCCCAGCCUCCUCGCUGGCGCCGGCUGGGCAACAUUCCGAGGGGACCGUCCCCUCCGUAAUGGCGAAUGGGUCCCA [G67C A83U]"
recorded_number = 0.469

[[record]]
seq = "GGCCGGCAUGGUCCCUGCCUCCUCGCUGGCGCCGGCUGGGCAACAUACCGAGGGGACCGUCCCCUCGGUAAUGGCGAAUGGGACCCA [A16U U47A]"
recorded_number = 0.639

[[record]]
seq = "GGCCGGCAUGGUCCCAGCCUCCUCGUUGGCGCCGGCUGCGCAACAUUCCGAGGGGACCGUCCCCUCGGUAAUGGCGAAUGGGACCCA [C26U G39C]"
recorded_number = 0.475


Each variant below has a reported value. Please supply its self-cleavage.
1. GGCCGGCAUGGUCCCCGCCUCCUCGCUGGCGCCGGCUGGGCAACAUUCCGAGGGGACCGUACCCUCGGUAAUGGCGAAUGGGACCCA [A16C C61A]
2. GGCCGGCAUGGUCCCAGCCUCCUCGCUGGCGCCGGCUGGGCAACAUUCCGAGGCGACCGUCCCCUCGGUAAUGGCGAAUGUGACCCA [G54C G81U]

Response:
[0.332, 0.19]

// for each variant below, give its self-cleavage
1. GGCCGGCAUGGUCCCAGCUUCCUCGCUGGCGCCGGCUGGGCAACAUUCCGAGGGGACCGCCCCCUCGGUAAUGGCGAAUGGGACCCA [C19U U60C]
2. GGCCGGCAUGGUCCCAGCCUCCUCGCUGGCGCCGGCCGGGCAACAUUCCGAGGGGACCGUCCCGUCGGUAAUGGCGAAUGGGACCCA [U37C C64G]
3. GGCCGGCAUGGUCCCAGCCUCCUCGCUGGCACCGGCUGGGCAACAUUCCGAGGGGACCGUCCCCUCGGUAAUGGCGAAUGGGACCCA [G31A]
4. GGCCGGCAUGGUCCCAGCCUCCUCGCUGGCGCCGGCUGGGCAACAUUCCGUGGGGACCGUCCCCUGGGUAAUGGCGAAUGGGACCCA [A51U C66G]
5. GGCCGGCCUGGUCCCAGCCUCCUCGCUGGCGCCGGCUGGGCAACCUUCCGAGGGGACCGUCCCCUCGGUAAUGGCGAAUGGGACCCA [A8C A45C]

Response:
1: 0.0906; 2: 0.604; 3: 0.503; 4: 0.816; 5: 0.156

Provide self-cleavage values for the following items, in order.
1. GGCCGGAAUGGACCCAGCCUCCUCGCUGGCGCCGGCUGGGCAACAUUCCGAGGGGACCGUCCCCUCGGUAAUGGCGAAUGGGACCCA [C7A U12A]
2. GGCCGGCAUGGUUCCAGCCUCCUCGCUGGCGCCGGCUGGGCAACAUUCCGAGGGGACCGUCCCGUCGGUAAUGGCGAAUGGGACCCA [C13U C64G]
3. GGCCGGCAUGGUCCCAGCCUCCUCGCUGGCGCCGGCUGGGCAACAUUCCGAGGGGACCGUCCCCUCGGUAAUGGCCAAUGGGAUCCA [G76C C84U]
4. GGCCGGCAUGGUCCCCGCCUCCUCGCUGGCGCCGGCUGGUCAACAUUCCGAGGGGACCGUCCCCUCGGUAAUGGCGAAUGGGACCCA [A16C G40U]
5. GGCCGGCAUGGUCCCAGCCUCCUCUCUGGCGGCGGCUGGGCAACAUUCCGAGGGGACCGUCCCCUCGGUAAUGGCGAAUGGGACCCA [G25U C32G]
6. GGCCGGCAUGGUCCCAGCCUCCUCGCUGGCGCCGGCUGGGCAAAAUUCCGAGGGGACCGUCCCCUCGGUAAUGGCGAAUGGGACCCC [C44A A87C]
7. GGCCGGCAUGGUCCAAGCCUCCUCGCUGGCGCCGGCUGGGCAACAUUCCGAGGGGACCGUCCCCUCGGUAAUGGCGAAUGUGACCCA [C15A G81U]
8. GGCCGGCAUGGUCCCAGCCUCCUCGCUGGCGCCCGCUGGGCAACAUUCCGAGGGGACCGUCCCCUCGGUAAUGGAGAAUGGGACCCA [G34C C75A]

Response:
0.0978
0.567
1.04
0.73
0.0222
0.74
0.232
0.131
